Some variants, each annotated with its measured abundance fitness.
B1: POU domain, class 2, transcription factor 3, residues 186 to 260; numbered along this chain, Q9UKI9 (parent)
chain: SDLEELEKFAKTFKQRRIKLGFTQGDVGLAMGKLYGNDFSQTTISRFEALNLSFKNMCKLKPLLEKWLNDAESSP

- Variants of: B1
- experiment summary: abundance fitness (aPCA) (normalised: wild type 0, dead -1); higher = more abundant; growth selection in yeast, the domain comes from the species named
- conditions: Homo sapiens
result type: abundance fitness

>>> reported("SDLEELEKFAKTFKQRRIKLGFTQGDVGLAMGKLYGNDFSQTTISRFEALNLSFKNMCKLKPLLEKWLNDNESSP [A71N]")
0.093
>>> reported("SDLEELEKFAKTFKQRRIKLGFTQGDVGLAMGKLYGNDFSQTTISRFEALNLSFKNMCKLKFLLEKWLNDAESSP [P62F]")
-0.191
>>> reported("SDLEELEKFAKTFKQRRIKLGFTQGDVGLAMGKLYGNDFSQTTISRFPALNLSFKNMCKLKPLLEKWLNDAESSP [E48P]")
-0.994
>>> reported("SDLEELEKFAKTFKQRRIKLGFTQGDVGLAMGKLYGNDFSQTTISRFEALNLSFKNMCKYKPLLEKWLNDAESSP [L60Y]")
-0.117
>>> reported("SDLEELEKFAKTFKQRRIKLGFTQGDVGLAMGKLYGNDFSQTTISRFEALNLSFKNMCKLKPLLEKWLNDAKSSP [E72K]")
-0.133
>>> reported("SDLEELEKFAKTFKQRRIKLGFTQGDVGLAMGKLYGNDFSQTTESRFEALNLSFKNMCKLKPLLEKWLNDAESSP [I44E]")
-0.794
>>> reported("SDLEELEKFAKTFKQRRIKLGFTQGDVGLAMGKLYGNDFSQTTISRFEALNLSFKNMCKLKPLLEKWLNDTESSP [A71T]")
-0.005
>>> reported("SDLEELEKFAKTFKQRRIKLGFTQGDVGLAMGKLYGNDFSQTTISTFEALNLSFKNMCKLKPLLEKWLNDAESSP [R46T]")
-0.181
>>> reported("SDLEELEKFAKTFKQRRIKLGFTQGDVGLAMGKLYGNDFSQTTITRFEALNLSFKNMCKLKPLLEKWLNDAESSP [S45T]")
-0.036
>>> reported("SDLEELEKFAKTFKQRRIKLGFTQGDVGLAMGKLYGNDFSQTTISRFEALNLSFGNMCKLKPLLEKWLNDAESSP [K55G]")
0.009
>>> reported("SDLEELEKFAKTFKQRRIKLGFTQGDVGLAMGKLYGNDFSQTTRSRFEALNLSFKNMCKLKPLLEKWLNDAESSP [I44R]")
-0.86
>>> reported("SDLEELEKFAKTFKQRRIKLGFTQGDVGLAMGKLYGMDFSQTTISRFEALNLSFKNMCKLKPLLEKWLNDAESSP [N37M]")
-0.025
